Data provenance is ChEMBL document CHEMBL3988442.

# Test system: Wolbachia pipientis
# Experiment: Anti-Wolbachia Cell-Based Screen
# Format: functional
# Set-up: scale not given: in the data most compounds retested in dose-response had high values
# Experimental setup: 5 µM
About 13,000 (27%) of roughly 48,000 compounds showed an effect of 50% or more. Some of the results follow.
Threshold-based label: Percent Effect under 10% gives criterion met, Percent Effect not under 10% gives criterion not met.

In [3]: df
Out[3]:
                                    compound        label_value
 0          Cc1cnn(CCNCCCOc2ccc3c(c2)OCO3)c1      criterion met
 1  Cc1nc2sccn2c1CNC1(c2ccccc2F)CCCC1.O=C(O)CC(O)(CC(=O)O)C(=O)O  criterion not met
 2  CC(=O)N(C)C(c1cccnc1)c1ccc(F)c(F)c1 (stereo unspecified)      criterion met
 3         Cc1nc(CN2CCC3(CCCO3)CC2)c2ccccn12  criterion not met
 4  COCCO[C@H]1CCN(Cc2ccsc2)[C@H]1Cc1cccnc1.O=C(O)C(F)(F)F.O=C(O)C(F)(F)F  criterion not met
 5     COc1c(CNC2(c3ccc(Cl)cc3)CCC2)c(C)nn1C      criterion met
 6  COc1ccccc1C1(NCc2c(C)nc3c(C)cccn23)CCCC1.Cl  criterion not met
 7           Cc1nc2sccn2c1CNc1ccc(C(=O)O)cc1      criterion met
 8  Cc1ccc(C2(O)CCN(Cc3nc(C)n4ccccc34)CC2)nc1      criterion met
 9       O=C(CCS(=O)(=O)c1ccccc1)NCCCn1cccn1  criterion not met
10    Cc1ccc(CN(CCN(C)C)Cc2nc3ccccc3[nH]2)s1      criterion met
11  CN1CCCC2(CCN(c3cc(C(F)(F)F)nc(N(C)C)n3)C2)C1=O (stereo unspecified)      criterion met
12      CNC(=O)c1cnc2n1CCN(C(=O)Cc1ccccn1)C2      criterion met
13         O=C(CCn1cccn1)NCCOc1ccc2c(c1)OCO2  criterion not met
14  CCC(CO)N(Cc1cccs1)C(=O)Cc1ccncc1 (stereo unspecified)      criterion met
15  Cl.O=C(CN1CCC[C@H]1C(=O)O)NCCOc1cccc(Cl)c1      criterion met
16  CC(C)N(C)Cc1cnc2n1CCN(Cc1ccsc1)C2.O=C(O)C(F)(F)F.O=C(O)C(F)(F)F  criterion not met
17    Cn1c(CCNC(=O)Nc2cn[nH]c2)nc2ccc(F)cc21      criterion met
18  Cc1nc(CN2CCC(O)(c3ccccc3F)CC2)c2ccccn12.O=C(O)CC(O)(CC(=O)O)C(=O)O  criterion not met
19  COc1ccc(C2(NCc3c(C)nc4c(C)cccn34)CCCC2)cc1.O=C(O)CC(O)(CC(=O)O)C(=O)O  criterion not met
20  CN(C)c1nc(-c2ccncc2)nc2c1CCN(C(=O)[C@H](N)CO)C2  criterion not met
21     COc1ccc(C2(NC(=O)CCn3cncn3)CCCCC2)cc1      criterion met
22  COC(=O)CCC(=O)N1CCC2(CN(Cc3ccc(Cl)cc3)C2)C1  criterion not met
23  COC(=O)CCC(=O)N1CCC2(CN(Cc3cccc(F)c3)C2)C1      criterion met
24  CCN(C(C)=O)C(c1cccnc1)c1cc(C)cc(C)c1 (stereo unspecified)      criterion met
25  COC(=O)CCC(=O)N1CCC2(CN(Cc3cccc(Cl)c3)C2)C1  criterion not met
26       COc1ccccc1C1(CNc2snc(Cl)c2C#N)CCCC1      criterion met
27  CN(C)Cc1cnc2n1CCN(C(=O)Cc1ccsc1)CC2.O=C(O)C(F)(F)F      criterion met
28  CN(CC(=O)N(C)C(c1cccnc1)c1ccc(F)c(F)c1)C1CC1 (stereo unspecified)  criterion not met
29  CN(CC(=O)N(C)C(c1ccc(Cl)cc1)c1cccnc1)C1CC1 (stereo unspecified)  criterion not met
30  CCC(=O)NCC(=O)N(C)C(c1ccc(Cl)cc1)c1cccnc1 (stereo unspecified)  criterion not met
31  CCCNC(=O)CN1CCOC(c2ccc(Br)cc2)C1 (stereo unspecified)      criterion met
32  COCCO[C@H]1CCN(Cc2cccnc2)[C@H]1Cc1cccnc1.O=C(O)C(F)(F)F.O=C(O)C(F)(F)F.O=C(O)C(F)(F)F  criterion not met
33  CC(C)C(c1cccnc1)N(C)C(=O)Cc1c(F)cccc1F (stereo unspecified)      criterion met
34   COC(=O)CCC(=O)N1CCC2(CN(Cc3ccccc3)C2)C1  criterion not met
35  CN(C)Cc1cnc2n1CCN(Cc1ccsc1)CC2.O=C(O)C(F)(F)F.O=C(O)C(F)(F)F      criterion met
